Can you tell me TGI for the items I'm about to list?
- Tested on: MALME-3M melanoma
- protocol.text: NCI tumour cell line growth inhibition, 48 h

Requested field: TGI. Item: Nc1nc(Nc2cccnc2)sc1C(=O)c1ccccc1F 12.4 µM

Here is the next compound: Clc1cc(Cl)c2ns[s+]c2c1Cl > 100 µM

And CCOC(C)O[C@H]1C(=O)OCC1(C)C (some centres undefined) ? > 100 µM

Do the same for O=c1cc(N2CCCC2)[nH]c(=O)n1-c1cccc(Cl)c1 please > 100 µM

# iterate: COc1ccc(C(=O)c2cc(C)c(OC)c(C)c2)c(OC)c1O > 100 µM

Item: COC(=O)Nc1nc2ccc(S(=O)(=O)SC)cc2[nH]1 25.6 µM

Please do the same for CCOC(=O)Cc1nc2cc(F)c(F)cc2[nH]c1=O as well. > 100 µM

Please give the result for O=C1c2ccccc2C(=O)N1CCCCNOCCCN1C(=O)c2ccccc2C1=O too. > 100 µM

Subsequent entry: COC(=O)C(Cc1nc2ccccc2[nH]c1=O)C(NO)C(=O)Nc1c(Cl)cc([N+](=O)[O-])cc1Cl (centres undefined) > 100 µM

Then what about the compound N#CCCC(CCC#N)(CCC#N)NO ? > 100 µM

For COc1ccc(CN2CC(C)(C)C2=O)c(OC)c1 then? > 100 µM

Another compound to look at: COc1cc2oc(-c3ccc(O)cc3)c(OC)c(=O)c2c(O)c1OC > 100 µM

Another: COC(=O)c1cc2c(cc1Cl)Sc1nnc(Nc3ccc(C)cc3)n1S2(=O)=O 26.3 µM

Do the same for Cc1ccc2c(c1)CC1(Cc3ccccc3C1=O)C2=O (centres undefined) please > 100 µM

Now consider CC(C)=C[C@H]1CCC2(OCCO2)[C@]1(C)CO and answer again. > 100 µM

One more compound: O=C(Nc1nnc(-c2ccc(Cl)cc2)o1)C(SC(=S)N1CCOCC1)c1ccccc1 (centres undefined) > 100 µM

Entry Cc1cc(C)c(NC(=O)c2sc3nc4c(cc3c2N)C(=O)CCC4)c(C)c1 please > 100 µM

Next compound up: O=C(Nc1ccccc1-c1nc2ccccc2[nH]c1=O)c1ccccc1 92.7 µM

And the next one, CC(C)OC(=O)/C=C/C(=O)O/C=C/[N+](=O)[O-] ? 63.7 µM

Next compound up: O=C1NC(=S)NC(=O)C1C(c1ccc(O)cc1)C1C(=O)NC(=S)NC1=O > 100 µM

Consider next the compound CCOC(=O)c1cc2c3ccn(Cc4ccccc4)c3c3c(C)[nH]oc3c2n1 in the same way. > 100 µM

Try Clc1ccc(C[P+](c2ccccc2)(c2ccccc2)c2ccccc2)c(Cl)c1 next. 15.7 µM

Next compound: CC1(C)C[C@@H]2C1CCC1(C)CC2(O)CC[C@H]1O (some centres undefined) > 100 µM

Queued: CC/C=C\C[C@H](O)C/C=C1/C(=O)C=C[C@@H]1C/C=C\CCCC(=O)OC 6.24 µM

Would you mind doing CC(=O)Oc1ccc2cc(-c3ccccc3OC(C)=O)c(=O)oc2c1 as well? > 100 µM

Please do the same for CCCCCCCCCCCCCCCC(=O)OCC(C[As](=O)(O)O)OC(=O)CCCCCCCCCCCCCCC (centres undefined) as well. > 100 µM

How about COCCCNc1nc(N)c(C#N)c(C#N)c1C#N ? > 10 µM

Then COc1cc(-c2nc3ccccn3c2/N=C/c2cc(Br)cc(Br)c2O)ccc1O ? 57.8 µM

Next entry: C/C(=N/NC(N)=S)c1ccc[nH]1 > 100 µM

Same read-out for CC1=CC(C)(C)N=C2SC(c3ccc(N)cc3)=NN12 ? > 100 µM

Could you do the same for CCOC(=O)CNC(=O)N(CC)C12CC3CC(CC(C3)C1)C2 , please? 278 µM

Again, but for COc1cc2cc3c4cc(OC)c(OC)cc4cc[n+]3c(C)c2cc1OC (tested in a mixture with another compound) > 100 µM

Would you mind doing C=CCCCCC/C=C\[C@@H](O)C#CC#C/C=C/CO as well? > 100 µM

What do you get for O=C(NC(Cc1ccccc1)(Cc1ccc(O)cn1)C(=O)O)c1ccccc1 (centres undefined) ? > 100 µM

Consider next the compound CCOC(=O)C1CCN(S(=O)(=O)/N=C2/NC(=O)NC2=C(Cl)Cl)CC1 in the same way. 3.48 µM

Again, but for O=C(Nc1n[nH]c2cc(-c3ccccc3)ccc12)C1CC1 > 25 µM

Next compound up: Cn1cc(C2(C)CC(C)(C)c3c2n(C)c2ccccc32)c2ccccc21 (centres undefined) > 100 µM

Could you do the same for CCN1CCN(c2nc3ccccc3c3c2CCOc2ccccc2-3)CC1 , please? 35.3 µM

Field entry: C[C@@H]1Nc2cc(NC(=O)OCCF)nc(N)c2N=C1c1ccccc1 49 µM

Same lookup for CCOC(=O)C1SC(=Nc2ccc(C)c(C)c2)N=C1C (centres undefined) , please. > 100 µM

Query CCOP(=O)(OCC)C(c1ccc(F)cc1)N(C(=O)NC(F)(F)F)c1cccc(C(F)(F)F)c1 (centres undefined) next > 100 µM

Entry to check: Cc1ccc(NC(=O)c2cccc(C(C)(C)C#N)c2)cc1Nc1ccc2ncn(C)c(=O)c2c1 0.0434 µM

What about CC(CC[C@@]1(C)C(=O)CCC2O[C@]21C)[C@H]1C[C@@H](c2ccoc2)OC1=O (some centres undefined) ? 81.3 µM

// next record COC1=C(OC)C(=O)C(Cc2c(C)nc3sccn23)=C(C)C1=O 31 µM
